experiment: TOX21_p53_BLA_p2_viability: Viability Assessment in the Tox21 HCT-116 p53 Agonism Beta-lactamase Assay, Phase 2 (AID 2283591);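 further: compound exposure lasted 16 h at 37 °C; actives lower the ATP signal meaning cytotoxicity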
Inconclusive results are not listed. Activity calls are given as the source filed them. How the source made its calls: active means hit-call score of the fitted dose curve at least 0.9, where 1 is the maximum; inconclusive means response in the unintended direction; inactive means score below 0.9.
Outcome codes: active, inactive

> print(dat)
                                entry.smiles  discrete.label
 1                    CCC(=O)c1c(O)cc(O)cc1O        inactive
 2  C[C@@H]1CN(c2c(F)c(N)c3c(=O)c(C(=O)O)cn(C4CC4)c3c2F)C[C@H](C)N1        inactive
 3                    CCO[Si](CCCCl)(OCC)OCC        inactive
 4                     Nc1c2ccccc2nc2ccccc12        inactive
 5  NS(=O)(=O)c1cc2c(cc1Cl)NC(CSCc1ccccc1)=NS2(=O)=O        inactive
 6  O=C(Nc1ccc(Cl)cc1)Nc1ccc(Cl)c(C(F)(F)F)c1          active
 7  CCCCCCCCCCCCCCCCCCCCCC(=O)Nc1ccn([C@@H]2O[C@H](CO)[C@@H](O)[C@@H]2O)c(=O)n1        inactive
 8  CCCCCCCCCCCCOCCOCCOCCOCCOCCOCCOCCOCCOCCO          active
 9  CCCCCCCCCCCCCCCC(=O)OC[C@@H](NC(=O)C(Cl)Cl)[C@H](O)c1ccc([N+](=O)[O-])cc1        inactive
10                                NCCNCCNCCN        inactive
11  CCCOC(C(=O)OC1CCN(C)CC1)(c1ccccc1)c1ccccc1        inactive

---

read-out: Decorin, DCN (gene 1634); experiment: BSK_MyoF_Decorin: BioMAP Diversity Plus: MyoF Assay for Decorin Biomarker Activity (AID 2284265); conditions: primary human lung fibroblasts
Activity calls are given as the source filed them. Rule for the calls: active = hit-call score of the fitted dose curve at least 0.9, where 1 is the maximum; inactive = score below 0.9.
ATTRIBUTE MEASURED: outcome

> print(dat)
                                   compound  data.value
1  CN(C)CCC(c1ccc(Cl)cc1)c1ccccn1 (stereo not drawn)    inactive
2             CCCCCCCCCCCCCCCCCC[N+](C)(C)C    inactive
3  CCCCCCCCCC/C=C/C1CC(=O)OC1=O (stereo not drawn)    inactive
4                                 Cc1cccnc1    inactive
5                       COC(=O)/C=C\C(=O)OC    inactive
6                           Oc1cccc2ccccc12    inactive
7  CC(C)CC(=O)CC(C)CC(C)C (stereo not drawn)    inactive
8  CCCCCCC(O)CCCCCCCCCCC(=O)OC (stereo not drawn)    inactive

---

test: ATG_CRE_CIS: Attagene CIS-FACTORIAL HepG2 Assay for human cAMP Responsive Element (CRE) binding protein 3 (AID 2282926); conditions: HepG2 CRE cis-reporter, Attagene multiplexed mRNA; actives raise or lower the signal
Calls of active or inactive are those of the source. The calls were made as follows: active = hit-call score of the fitted dose curve at least 0.9, where 1 is the maximum; inactive = score below 0.9.
Possible outcomes: t for active, f for inactive

> print(dat)
                                    molecule  discrete.label
 1    COC(OC)C(C)c1ccccc1 (stereo not given)               f
 2                                CCCCCCCC#N               f
 3  O=C(CC(C(=O)OC1CCCCC1)S(=O)(=O)O)OC1CCCCC1 (stereo not given)               f
 4                                   CCCOCCC               f
 5                     CC/C=C\CC1=C(C)CCC1=O               f
 6                       Cc1ccccc1S(=O)(=O)O               f
 7                      COc1cccc(OC)c1C(=O)O               f
 8                O=C(C(=O)c1ccccc1)c1ccccc1               f
 9      NC(N)=Nc1nc(CSCCC(N)=NS(N)(=O)=O)cs1               f
10                          OCCOCCOCCOCCOCCO               f
11  CC1=CCCC(C)(C)C12CCC(C)O2 (stereo not given)               f
12                          CCOC(=O)c1ccccc1               f
13                     CCO[Si](CCCN)(OCC)OCC               f
14                    CC1=C(CC=O)C(C)(C)CCC1               f
15                            Sc1nc2ccccc2s1               f
16  CN(C)CCC(c1ccc(Cl)cc1)c1ccccn1 (stereo not given)               f
17     CN(C)Cc1cc(C(C)(C)C)c(O)c(C(C)(C)C)c1               f
18  CC(C)(C)NC(=O)[C@@H]1CN(Cc2cccnc2)CCN1C[C@@H](O)C[C@@H](Cc1ccccc1)C(=O)N[C@H]1c2ccccc2C[C@H]1O               f
19                 COc1c2occc2cc2ccc(=O)oc12               f
20                                CCCC(=O)OC               f
21             CCCCCCCCCCCCCCCCCC[N+](C)(C)C               t
22     COc1ccccc1OCC(O)CO (stereo not given)               f
23                   CC(=O)OC(C)(C)Cc1ccccc1               f
24        CCCCCCCCCCC1CO1 (stereo not given)               f
25           CCCCCCOC(=O)CCCCCCCC(=O)OCCCCCC               f
